# Assay target: human Nav1.5 channels stably expressed in HEK 293 cells (Homo sapiens)
# Construct: expressed in transfected cells
# Sequence (Q14524 whole entry): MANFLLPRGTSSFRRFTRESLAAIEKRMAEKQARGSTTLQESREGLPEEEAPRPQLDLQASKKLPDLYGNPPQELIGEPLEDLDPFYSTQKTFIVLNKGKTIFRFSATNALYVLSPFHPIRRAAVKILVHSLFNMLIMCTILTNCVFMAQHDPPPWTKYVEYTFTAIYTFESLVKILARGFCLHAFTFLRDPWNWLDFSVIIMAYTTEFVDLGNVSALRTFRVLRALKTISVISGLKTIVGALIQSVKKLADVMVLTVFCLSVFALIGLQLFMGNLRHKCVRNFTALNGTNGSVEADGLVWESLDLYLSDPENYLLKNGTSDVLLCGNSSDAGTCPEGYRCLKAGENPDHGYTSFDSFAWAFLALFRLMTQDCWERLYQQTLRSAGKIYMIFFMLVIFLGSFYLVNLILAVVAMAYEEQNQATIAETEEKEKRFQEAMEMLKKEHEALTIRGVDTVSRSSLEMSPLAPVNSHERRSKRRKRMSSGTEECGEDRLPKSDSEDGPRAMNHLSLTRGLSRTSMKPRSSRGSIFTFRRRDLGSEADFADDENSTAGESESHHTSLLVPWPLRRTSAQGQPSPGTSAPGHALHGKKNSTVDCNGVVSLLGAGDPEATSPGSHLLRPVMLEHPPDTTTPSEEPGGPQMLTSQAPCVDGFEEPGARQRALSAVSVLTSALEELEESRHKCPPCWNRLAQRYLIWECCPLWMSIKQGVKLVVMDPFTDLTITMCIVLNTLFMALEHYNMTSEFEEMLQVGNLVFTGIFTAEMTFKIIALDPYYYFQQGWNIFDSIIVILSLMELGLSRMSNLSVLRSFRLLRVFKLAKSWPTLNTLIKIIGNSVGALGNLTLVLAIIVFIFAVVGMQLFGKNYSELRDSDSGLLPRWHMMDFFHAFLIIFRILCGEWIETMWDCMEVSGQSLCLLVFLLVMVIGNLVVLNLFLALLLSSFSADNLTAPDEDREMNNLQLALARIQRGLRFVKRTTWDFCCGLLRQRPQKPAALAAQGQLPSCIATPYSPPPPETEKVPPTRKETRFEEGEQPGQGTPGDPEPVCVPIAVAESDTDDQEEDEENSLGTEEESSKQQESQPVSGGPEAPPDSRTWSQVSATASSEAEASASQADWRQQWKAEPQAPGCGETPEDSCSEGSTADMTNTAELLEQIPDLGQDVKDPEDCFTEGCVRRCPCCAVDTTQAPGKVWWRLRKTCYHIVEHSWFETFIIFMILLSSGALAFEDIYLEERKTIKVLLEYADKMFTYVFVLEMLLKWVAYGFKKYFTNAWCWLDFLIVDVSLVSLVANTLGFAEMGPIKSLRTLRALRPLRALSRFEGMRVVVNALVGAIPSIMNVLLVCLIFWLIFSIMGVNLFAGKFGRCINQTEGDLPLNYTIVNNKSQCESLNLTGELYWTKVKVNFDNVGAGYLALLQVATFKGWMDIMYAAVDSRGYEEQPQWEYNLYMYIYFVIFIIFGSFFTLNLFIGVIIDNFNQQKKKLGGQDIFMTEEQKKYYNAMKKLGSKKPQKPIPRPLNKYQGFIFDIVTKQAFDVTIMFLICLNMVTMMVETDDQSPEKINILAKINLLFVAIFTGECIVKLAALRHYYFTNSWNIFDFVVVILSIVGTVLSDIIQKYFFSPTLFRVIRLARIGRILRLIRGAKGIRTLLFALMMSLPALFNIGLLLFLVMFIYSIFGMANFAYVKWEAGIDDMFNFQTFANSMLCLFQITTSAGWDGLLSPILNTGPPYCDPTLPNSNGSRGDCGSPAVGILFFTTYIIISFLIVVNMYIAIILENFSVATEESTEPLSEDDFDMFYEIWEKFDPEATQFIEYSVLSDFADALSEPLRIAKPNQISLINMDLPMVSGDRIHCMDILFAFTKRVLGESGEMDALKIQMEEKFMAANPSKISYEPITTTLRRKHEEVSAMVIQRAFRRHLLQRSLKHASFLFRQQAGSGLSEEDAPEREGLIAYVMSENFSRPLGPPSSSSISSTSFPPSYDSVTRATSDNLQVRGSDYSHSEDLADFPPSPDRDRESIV
# Assay protocol: PatchXpress 7000 automated patch-clamp, sodium current
# Type: cell-based
# Condition details: selectivity over Nav1.5
Metric name: ratio of Nav 1.5:Nav 1.7 potency, determined by PatchXpress measurement

Task item: Which ratio of Nav 1.5:Nav 1.7 potency, determined by PatchXpress measurement value is on record for Nc1ccc2c(c1)C(n1c(=O)oc3cc(S(=O)(=O)Nc4nccs4)c(F)cc31)CCC2 (stereo not shown) [Compound 43-14] ?
Reply: 724

Task item: For Cc1ccc2c(c1)C(n1c(=O)oc3cc(S(=O)(=O)Nc4nccs4)c(F)cc31)CCC2 (stereo not shown) then?
Reply: 137

Task item: For C[C@H](c1ccccc1C#CCCO)n1c(=O)oc2cc(S(=O)(=O)Nc3ncns3)c(F)cc21 then?
Reply: 360

Task item: For C[C@H](c1ccccc1C1(F)CNC1)n1c(=O)oc2cc(S(=O)(=O)Nc3ncns3)c(F)cc21 then?
Reply: 1333

###

Each entry below carries its recorded pIC50.
# Assay target: human Nav1.7 channels stably expressed in HEK 293 cells (Homo sapiens, UniProt Q15858)
# Construct: expressed in transfected cells
# Sequence (Q15858 whole entry): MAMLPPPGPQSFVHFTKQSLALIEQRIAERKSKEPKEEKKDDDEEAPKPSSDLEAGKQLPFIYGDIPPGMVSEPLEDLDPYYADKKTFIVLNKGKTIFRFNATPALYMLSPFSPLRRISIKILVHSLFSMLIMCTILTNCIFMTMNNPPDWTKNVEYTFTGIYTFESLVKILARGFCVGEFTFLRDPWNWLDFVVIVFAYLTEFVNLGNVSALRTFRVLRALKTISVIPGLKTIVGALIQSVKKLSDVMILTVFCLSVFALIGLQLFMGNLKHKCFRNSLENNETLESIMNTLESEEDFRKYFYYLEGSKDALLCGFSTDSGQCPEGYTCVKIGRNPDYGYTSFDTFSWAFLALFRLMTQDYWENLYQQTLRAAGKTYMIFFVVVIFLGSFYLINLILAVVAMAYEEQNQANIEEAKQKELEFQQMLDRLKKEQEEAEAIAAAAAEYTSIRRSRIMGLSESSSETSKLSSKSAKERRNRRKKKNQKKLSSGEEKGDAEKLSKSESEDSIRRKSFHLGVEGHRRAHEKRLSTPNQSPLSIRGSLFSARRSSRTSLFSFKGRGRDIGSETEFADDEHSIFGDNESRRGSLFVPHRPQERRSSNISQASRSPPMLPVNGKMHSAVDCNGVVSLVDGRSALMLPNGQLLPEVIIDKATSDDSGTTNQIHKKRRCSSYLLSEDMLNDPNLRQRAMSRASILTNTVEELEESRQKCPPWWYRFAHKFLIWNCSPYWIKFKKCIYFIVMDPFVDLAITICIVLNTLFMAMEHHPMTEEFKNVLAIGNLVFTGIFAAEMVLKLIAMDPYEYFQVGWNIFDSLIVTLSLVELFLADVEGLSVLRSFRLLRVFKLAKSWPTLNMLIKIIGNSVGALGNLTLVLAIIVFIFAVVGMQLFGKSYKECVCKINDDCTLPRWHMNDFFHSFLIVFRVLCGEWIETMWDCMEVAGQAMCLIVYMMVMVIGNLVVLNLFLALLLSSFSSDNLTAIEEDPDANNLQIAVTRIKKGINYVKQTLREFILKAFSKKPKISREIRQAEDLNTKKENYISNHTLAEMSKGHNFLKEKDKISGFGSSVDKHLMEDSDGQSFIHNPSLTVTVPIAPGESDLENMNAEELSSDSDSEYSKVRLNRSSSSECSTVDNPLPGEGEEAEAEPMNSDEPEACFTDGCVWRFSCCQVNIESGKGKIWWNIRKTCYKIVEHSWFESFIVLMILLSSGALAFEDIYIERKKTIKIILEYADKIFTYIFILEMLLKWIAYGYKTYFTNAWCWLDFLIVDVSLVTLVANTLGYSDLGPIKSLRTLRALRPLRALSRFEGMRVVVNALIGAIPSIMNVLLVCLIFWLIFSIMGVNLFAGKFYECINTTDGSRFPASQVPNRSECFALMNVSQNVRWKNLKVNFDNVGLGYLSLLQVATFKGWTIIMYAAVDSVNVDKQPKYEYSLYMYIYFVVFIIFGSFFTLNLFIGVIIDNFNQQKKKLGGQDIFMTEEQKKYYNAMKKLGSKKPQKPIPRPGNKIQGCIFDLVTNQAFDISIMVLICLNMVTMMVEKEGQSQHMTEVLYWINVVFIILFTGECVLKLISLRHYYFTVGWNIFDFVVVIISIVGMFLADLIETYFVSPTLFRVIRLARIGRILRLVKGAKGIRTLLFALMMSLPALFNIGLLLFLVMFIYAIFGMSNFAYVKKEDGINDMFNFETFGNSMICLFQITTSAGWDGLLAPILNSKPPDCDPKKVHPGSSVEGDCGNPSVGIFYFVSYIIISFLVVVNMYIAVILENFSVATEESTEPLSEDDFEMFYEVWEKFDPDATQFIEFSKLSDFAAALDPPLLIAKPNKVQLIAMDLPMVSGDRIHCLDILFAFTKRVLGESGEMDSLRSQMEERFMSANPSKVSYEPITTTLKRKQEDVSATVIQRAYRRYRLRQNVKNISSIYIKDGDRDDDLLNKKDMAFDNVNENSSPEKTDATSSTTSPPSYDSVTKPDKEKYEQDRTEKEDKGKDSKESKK
# Assay protocol: IonWorks Quattro automated patch-clamp, sodium current, inactivated state block
# Format: cell-based
# Condition details: read-out: potency for the Nav 1.7 sodium ion channel (as measured by IonWorks)
FYI, pIC50 means -log10 of a concentration in mol per litre.

Worked examples, 3 compounds total:
O=c1oc2cc(S(=O)(=O)Nc3ncns3)ccc2n1Cc1cccc(C2=CCNCC2)c1    6.12
O=c1oc2cc(S(=O)(=O)Nc3ncns3)ccc2n1Cc1ccccc1C1=CC2CCC(C1)N2 (stereo not shown)    6.53
CC(c1ccccc1C(F)(F)F)n1c(=O)oc2cc(S(=O)(=O)Nc3ncns3)ccc21 (stereo not shown)    5.94

Task item: Which pIC50 value is on record for CC(c1cccc2c1CNCC2)n1c(=O)oc2cc(S(=O)(=O)Nc3ncns3)ccc21 (stereo not shown) ?
Reply: 7.60

Task item: For C=CCC(c1ccccc1)n1c(=O)oc2cc(S(=O)(=O)Nc3ncns3)ccc21 (stereo not shown) then?
Reply: 6.57

Task item: For O=c1oc2cc(S(=O)(=O)Nc3ncns3)ccc2n1Cc1ccc(Cl)cc1 then?
Reply: 6.01

Task item: For O=c1oc2cc(S(=O)(=O)Nc3ncns3)ccc2n1Cc1cccc(-c2ccc3c(c2)CNCC3)c1 then?
Reply: 6.54

Task item: For O=c1oc2cc(S(=O)(=O)Nc3ncns3)ccc2n1Cc1cccc(-c2cccc3c2CCNC3)c1 then?
Reply: 6.37

Task item: For NC/C=C/c1ccccc1Cn1c(=O)oc2cc(S(=O)(=O)Nc3ncns3)ccc21 then?
Reply: 6.67

Task item: For CC(CCc1ccccc1)n1c(=O)oc2cc(S(=O)(=O)Nc3ncns3)ccc21 (stereo not shown) then?
Reply: 5.76

###

# Assay target: human Nav1.5 channels stably expressed in HEK 293 cells (Homo sapiens)
# Construct: expressed in transfected cells
# Assay protocol: IonWorks Quattro automated patch-clamp, sodium current, inactivated state block
# Format: cell-based
# Condition details: selectivity over Nav1.5
Each entry below carries its recorded ratio of Nav 1.5:Nav 1.7 potency, determined by IonWorks measurement.

O=C(C1CC1)N1CCc2cccc(Cn3c(=O)oc4cc(S(=O)(=O)Nc5ncns5)ccc43)c2C1 [Compound 10-1]    > 50
O=c1oc2cc(S(=O)(=O)Nc3ncns3)ccc2n1Cc1ccccc1 [Compound 1-10]    > 41
CC(c1cccc2c1CNCC2)n1c(=O)oc2cc(S(=O)(=O)Nc3ncns3)ccc21 (stereo not shown) [Compound 4-14]    > 1338

Next item in the queue.
Task item: Which ratio of Nav 1.5:Nav 1.7 potency, determined by IonWorks measurement value is on record for O=c1oc2cc(S(=O)(=O)Nc3ncns3)ccc2n1Cc1cccc(C2=CCNCCC2)c1 [Compound 3-17] ?
Reply: > 40

###

# Assay target: human Nav1.7 channels stably expressed in HEK 293 cells (Homo sapiens)
# Construct: expressed in transfected cells
# Assay protocol: PatchXpress 7000 automated patch-clamp, sodium current
# Format: cell-based
# Condition details: 22° C., read-out: potency for the Nav 1.7 sodium ion channel (as measured by PatchXpress)
For each record, check the reported IC50: if it is below 800 nM write Met, else write Not met.

C[C@H](c1ccccc1CN1CCC(F)(F)C1)n1c(=O)oc2cc(S(=O)(=O)Nc3ncns3)c(F)cc21    Met

Task item: Take the compound O=c1oc2cc(S(=O)(=O)Nc3ncns3)ccc2n1Cc1cccc2cc(Cl)ncc12 and say whether its IC50 is less than 800 nM.
Reply: Met

Task item: For O=c1oc2cc(S(=O)(=O)Nc3ncns3)ccc2n1Cc1cccc2c1CN(CC1CC1)CC2 then?
Reply: Met

Task item: For NC1CCc2c(cccc2Cn2c(=O)oc3cc(S(=O)(=O)Nc4ncns4)c(F)cc32)C1 (racemic) then?
Reply: Met

Task item: For CC(c1ccccc1C(F)(F)F)n1c(=O)oc2cc(S(=O)(=O)Nc3ncns3)ccc21 (stereo not drawn) then?
Reply: Not met

Task item: For CNC1CCc2cccc(Cn3c(=O)oc4cc(S(=O)(=O)Nc5ncns5)ccc43)c2C1 (racemic) then?
Reply: Met

###

# Assay target: human Nav1.5 channels stably expressed in HEK 293 cells (Homo sapiens)
# Construct: expressed in transfected cells
# Assay protocol: IonWorks Quattro automated patch-clamp, sodium current, inactivated state block
# Assay type: cell-based
# Condition details: selectivity over Nav1.5
Metric name: ratio of Nav 1.5:Nav 1.7 potency, determined by IonWorks measurement

O=c1oc2cc(S(=O)(=O)Nc3ncns3)ccc2n1Cc1ccccc1-c1cccc2c1CNCC2 [Compound 3-4]    > 209
O=c1oc2cc(S(=O)(=O)Nc3ncns3)ccc2n1Cc1cccc(-c2cccc3c2CNCC3)c1 [Compound 3-13]    > 83

Next item in the queue.
Task item: human Nav1.5 channels stably expressed in HEK 293 cells (Homo sapiens) / ratio of Nav 1.5:Nav 1.7 potency, determined by IonWorks measurement / O=c1oc2cc(S(=O)(=O)Nc3ncns3)ccc2n1C(c1ccccc1)C1CC1 (stereo not drawn) [Compound 4-12] : value?
Reply: > 32

###

# Assay target: human Nav1.5 channels stably expressed in HEK 293 cells (Homo sapiens)
# Construct: expressed in transfected cells
# Assay protocol: PatchXpress 7000 automated patch-clamp, sodium current
# Type: cell-based
# Condition details: selectivity over Nav1.5
Each entry below carries its recorded ratio of Nav 1.5:Nav 1.7 potency, determined by PatchXpress measurement.

Worked examples, 3 compounds total:
O=c1oc2cc(S(=O)(=O)Nc3ncns3)ccc2n1Cc1ccccc1C1=CCCNC1    > 91
CC(c1ccccc1C(F)(F)F)n1c(=O)oc2cc(S(=O)(=O)Nc3ncns3)ccc21 (stereo not shown)    > 11
O=c1oc2cc(S(=O)(=O)Nc3ncns3)ccc2n1C(c1ccccc1)c1ncco1 (stereo not shown)    > 47

Task item: Which ratio of Nav 1.5:Nav 1.7 potency, determined by PatchXpress measurement value is on record for O=c1oc2cc(S(=O)(=O)Nc3ncns3)c(F)cc2n1[C@H](CO)c1ccccc1 ?
Reply: > 71

###

# Assay target: human Nav1.5 channels stably expressed in HEK 293 cells (Homo sapiens)
# Construct: expressed in transfected cells
# Assay protocol: PatchXpress 7000 automated patch-clamp, sodium current
# Assay type: cell-based
# Condition details: selectivity over Nav1.5
Each entry below carries its recorded ratio of Nav 1.5:Nav 1.7 potency, determined by PatchXpress measurement.
Could you respond with only the numeric value?

O=c1oc2cc(S(=O)(=O)Nc3ncns3)c(F)cc2n1C1CCOc2ccccc21 (stereo not shown)    110

Task item: Which ratio of Nav 1.5:Nav 1.7 potency, determined by PatchXpress measurement value is on record for O=c1oc2cc(S(=O)(=O)Nc3ncns3)c(F)cc2n1Cc1cccc2c1CC(N1CCOCC1)CC2 (racemic) ?
Reply: 431

Task item: For C[C@H](c1ccccc1)n1c(=O)oc2cc(S(=O)(=O)Nc3ncns3)c(F)cc21 then?
Reply: 162

Task item: For C[C@H](c1cccc2c1CNCC2)n1c(=O)oc2cc(S(=O)(=O)Nc3ncns3)c(Br)cc21 then?
Reply: 932

Task item: For C[C@H](c1cccc(C#CCN)c1)n1c(=O)oc2cc(S(=O)(=O)Nc3ncns3)c(F)cc21 then?
Reply: 289

###

# Assay target: human Nav1.7 channels stably expressed in HEK 293 cells (Homo sapiens, UniProt Q15858)
# Construct: expressed in transfected cells
# Assay protocol: PatchXpress 7000 automated patch-clamp, sodium current
# Format: cell-based
# Condition details: 22° C., read-out: potency for the Nav 1.7 sodium ion channel (as measured by PatchXpress)
Metric name: IC50 (nM)
Value expressed in nM; do not type the unit.

C[C@H](c1ccccc1C#CCC1CCCN1)n1c(=O)oc2cc(S(=O)(=O)Nc3ncns3)c(F)cc21 (stereo partly drawn) [Compound 17-13]    34
C[C@H](c1ccccc1C#C[C@H]1CCCN1)n1c(=O)oc2cc(S(=O)(=O)Nc3ncns3)c(F)cc21 [Compound 17-21]    13

Task item: Which IC50 value is on record for C[C@@H](c1ccccc1)n1c(=O)oc2cc(S(=O)(=O)Nc3ncns3)c(F)cc21 [Compound 13-4] ?
Reply: 167

Task item: For C[C@H](c1cccc2ccncc12)n1c(=O)oc2cc(S(=O)(=O)Nc3ncns3)c(F)cc21 [Compound 14-8] then?
Reply: 71

Task item: For C[C@@H](c1cccc2ccncc12)n1c(=O)oc2cc(S(=O)(=O)Nc3ncns3)c(F)cc21 [Compound 14-10] then?
Reply: 779

Task item: For O=c1oc2cc(S(=O)(=O)Nc3nccs3)c(F)cc2n1Cc1cccc2c1CNCC2F (racemic) [Compound 43-26] then?
Reply: 141

Data origin, for the record: patent US9273040B2
